All figures here come from ChEMBL document CHEMBL1133531.

Target: Carbonic anhydrase 1 (Homo sapiens, UniProt P00915)
Sequence (P00915 whole entry): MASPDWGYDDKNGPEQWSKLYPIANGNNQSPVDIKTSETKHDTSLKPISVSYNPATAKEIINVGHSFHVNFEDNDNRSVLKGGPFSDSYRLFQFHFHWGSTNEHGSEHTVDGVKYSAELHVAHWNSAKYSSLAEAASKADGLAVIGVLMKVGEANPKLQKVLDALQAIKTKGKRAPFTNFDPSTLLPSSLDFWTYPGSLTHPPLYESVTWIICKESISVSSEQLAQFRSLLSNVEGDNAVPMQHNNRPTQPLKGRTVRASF
# thresholds on Ki define classes: 0 = under 300 nM, 1 = from 300 nM up to 1000 nM, 2 = 1000 nM and over

Consider the following illustrative entries.
NS(=O)(=O)c1ccc(NS(=O)(=O)C(F)(F)C(F)(F)C(F)(F)C(F)(F)C(F)(F)C(F)(F)C(F)(F)C(F)(F)F)c(I)c1    2
Cn1nc(S(N)(=O)=O)s/c1=N/C(=O)c1c(F)c(F)c(F)c(F)c1F    0
Cn1nc(S(N)(=O)=O)sc1=NS(=O)(=O)C(F)(F)C(F)(F)C(F)(F)C(F)(F)F    1

Ask: Please report the category associated with NS(=O)(=O)c1cccc(NS(=O)(=O)c2ccc(NS(=O)(=O)C(F)(F)C(F)(F)C(F)(F)C(F)(F)C(F)(F)C(F)(F)C(F)(F)C(F)(F)F)cc2)c1 , nothing else.
Reply: 2

Ask: Please report the category associated with NS(=O)(=O)c1nc2ccc(OCCOC(=O)c3c(F)c(F)c(F)c(F)c3F)cc2s1 , nothing else.
Reply: 0

Ask: Please report the category associated with NS(=O)(=O)c1nnc(NS(=O)(=O)c2c(F)c(F)c(F)c(F)c2F)s1 , nothing else.
Reply: 0

Ask: Please report the category associated with NS(=O)(=O)c1cc(S(N)(=O)=O)c(NS(=O)(=O)C(F)(F)C(F)(F)C(F)(F)C(F)(F)F)cc1Cl , nothing else.
Reply: 1

Ask: Please report the category associated with NS(=O)(=O)c1cccc(NS(=O)(=O)c2ccc(NC(=O)C(F)(F)C(F)(F)C(F)(F)C(F)(F)C(F)(F)C(F)(F)C(F)(F)C(F)(F)F)cc2)c1 , nothing else.
Reply: 2

Ask: Please report the category associated with NS(=O)(=O)c1ccc(NS(=O)(=O)C(F)(F)F)cc1 , nothing else.
Reply: 2

Ask: Please report the category associated with NS(=O)(=O)c1ccc(CCOS(=O)(=O)C(F)(F)C(F)(F)C(F)(F)C(F)(F)C(F)(F)C(F)(F)C(F)(F)C(F)(F)F)cc1 , nothing else.
Reply: 2

Ask: Please report the category associated with NS(=O)(=O)c1nc2ccc(NC(=O)c3c(F)c(F)c(F)c(F)c3F)cc2s1 , nothing else.
Reply: 0

Ask: Please report the category associated with NS(=O)(=O)c1ccc(CCOC(=O)c2c(F)c(F)c(F)c(F)c2F)cc1 , nothing else.
Reply: 2
